- target: Epidermal growth factor receptor (Homo sapiens)
- Sequence (P00533 whole entry): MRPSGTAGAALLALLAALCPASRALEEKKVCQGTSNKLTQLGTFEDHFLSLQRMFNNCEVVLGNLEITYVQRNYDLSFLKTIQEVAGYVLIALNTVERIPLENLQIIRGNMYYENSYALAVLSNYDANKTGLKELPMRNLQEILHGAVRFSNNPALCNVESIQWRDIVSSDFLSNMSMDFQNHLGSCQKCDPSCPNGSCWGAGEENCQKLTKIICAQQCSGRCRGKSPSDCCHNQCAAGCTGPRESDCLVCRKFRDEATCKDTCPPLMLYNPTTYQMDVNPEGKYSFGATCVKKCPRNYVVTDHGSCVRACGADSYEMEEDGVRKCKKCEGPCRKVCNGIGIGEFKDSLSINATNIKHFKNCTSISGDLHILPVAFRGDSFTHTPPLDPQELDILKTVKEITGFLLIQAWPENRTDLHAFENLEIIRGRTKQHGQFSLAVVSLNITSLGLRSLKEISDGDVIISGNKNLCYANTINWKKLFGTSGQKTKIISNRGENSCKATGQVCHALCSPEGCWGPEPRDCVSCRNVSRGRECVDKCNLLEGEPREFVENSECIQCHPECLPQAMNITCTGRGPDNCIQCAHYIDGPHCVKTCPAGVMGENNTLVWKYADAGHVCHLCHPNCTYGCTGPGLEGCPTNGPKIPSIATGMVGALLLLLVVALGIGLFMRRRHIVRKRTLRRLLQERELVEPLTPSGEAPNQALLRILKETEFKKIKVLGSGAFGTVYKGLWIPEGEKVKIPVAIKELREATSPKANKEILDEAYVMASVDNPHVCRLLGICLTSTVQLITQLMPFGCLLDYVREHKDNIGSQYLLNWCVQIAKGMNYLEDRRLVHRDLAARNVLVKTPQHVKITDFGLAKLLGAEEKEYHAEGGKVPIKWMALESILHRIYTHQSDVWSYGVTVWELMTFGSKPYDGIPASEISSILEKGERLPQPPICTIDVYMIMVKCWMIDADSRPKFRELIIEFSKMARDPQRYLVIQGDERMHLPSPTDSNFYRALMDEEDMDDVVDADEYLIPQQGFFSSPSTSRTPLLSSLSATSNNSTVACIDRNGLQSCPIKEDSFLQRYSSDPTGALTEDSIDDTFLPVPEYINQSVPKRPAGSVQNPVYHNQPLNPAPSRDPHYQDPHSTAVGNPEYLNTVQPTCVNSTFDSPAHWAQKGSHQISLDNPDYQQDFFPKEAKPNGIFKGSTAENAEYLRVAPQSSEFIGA
- assay.overview: Inhibition of human EGFR autophosphorylation in A431 cells
Overview of recorded IC50 for various molecules
Use nM as the unit, but write only the number.

These recorded examples may help you get a feel for the data.
cpd.smiles | IC50 / nM
N#Cc1cnc2cc(-c3ccc(CN4CCOCC4)cc3)ccc2c1N[C@@H]1C[C@H]1c1ccccc1 | 234
N#Cc1cnc2ccc(-c3ccc(CN4CCOCC4)cc3)cc2c1N[C@@H]1C[C@H]1c1ccccc1 | 2530
COc1ccc2ncc(C#N)c(N[C@@H]3C[C@H]3c3ccccc3)c2c1 | 8270
N#Cc1cnc2ccc(-c3ccc(CN)cc3)cc2c1N[C@@H]1C[C@H]1c1ccccc1 | 2100
COc1cc2ncc(C#N)c(N[C@@H]3C[C@H]3c3ccccc3)c2cc1OC | 90

Reported IC50 for `COCCOc1cc2ncc(C#N)c(N[C@@H]3C[C@H]3c3ccccc3)c2cc1OC` was 52.8

Reported IC50 for `COc1cc2ncc(C#N)c(N[C@@H]3C[C@H]3c3ccccc3)c2cc1OCCCc1cccnc1` was 68

Reported IC50 for `COc1cc2ncc(C#N)c(N[C@@H]3C[C@H]3c3ccccc3)c2cc1OCCN1CCOCC1` was 405

Reported IC50 for `COc1cc2c(N[C@@H]3C[C@H]3c3ccccc3)c(C#N)cnc2cc1OCCCc1cccnc1` was 173
